Target: T1, hBCMA-ECD-Fc (fusion protein of human BCMA extracellular domain Met1-Ala54 and human IgG1 Fc fragment … (human, UniProt Q02223 1-54))
T1 construct: range 1-54; also the immunogen; also called soluble extracellular domain of human BCMA; not shown: human IgG1 Fc fragment, Pro100-Lys330
T1 sequence (looked up): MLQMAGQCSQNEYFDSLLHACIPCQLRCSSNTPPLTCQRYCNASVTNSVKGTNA
Assay: ELISA, purified hybridoma antibody
pEC50: −log10 of the molar value.
Form field: pEC50 (one value per entry).

# binder, pEC50
measured = [
    ("hybridoma antibody 105C10F1 (mAb004) (antibody, IgG2b, V domains shown, murine hybridoma antibody, IgG2b,κ; re-named CP03; also called CP03) VH: EVKLLQSGGGLVQPGGSLKLSCAASGIDFSRYWMSWVRRAPGKGLEWIGEINPDSSTINYAPSLKDKFIISRDAAKNTLYLQMSKVRSEDTALYYCATLYYDYDGDYAMDYWGQGTSVTVSS VL: DIVMTPSQKFMSTSVGDRVSVTCKASQNVGTNVAWYQQKPGQSPKALIYSASYRYSGVPDRFTGSGSGTDFTLTISNVQSEDLAEYFCQHYNSYPFTFGSGTKLEIK", 10.42),
    ("hybridoma antibody 6G10-1D7 (mAb001) (antibody, IgG1, V domains shown, tested as supernatant and purified; also called CP01) VH: EVQLQQSGPELVKPGASMKISCKASDYSFTDYIMTWVKQSHGKNLEWIGLINPYNGGTTYNQKFKDKATFTVDKSSTTAYMDLLSLTSEDSAVYYCARRGITTDYYTMDYWGQGTSVTVSS VL: DIVMTQSQRFMSTSVGDRVSITCKASQSVGTAVAWYQQTPGQFPKLLIYSTSNRYTGVPDRFTGSGSGTDFTLTISNMQSEDLADYFCQQYSTYPLTFGSGTKLELK", 10.47),
    ("hybridoma antibody 113B3F12 (mAb008) (antibody, IgG2b, V domains shown, murine hybridoma antibody, IgG2b,κ) VH: EVQLQQSGPVLVKPGASVKMSCKASGYTFTDYYMNWVKQSHGKSLEWIGVINPYNGGTDYNQKFKGKATLTVDKSSSTAYMELNSLTSEDSAVYYCARRRESYGTSYQGAYFDSWGQGTTLTVSS VL: DIQMTQTTSSLSASLGDRVTISCRASQDISNYLNWYQQKPDGTVKLLIYYTSRLHSGVPSRFSGSGSGTDYSLSISDLEQEDIATYFCQQVITLPWTFGGGTKLEIK", 9.82),
    ("hybridoma antibody 102A12H6 (mAb003) (antibody, IgG1, V domains shown, murine hybridoma antibody, IgG1,κ) VH: EVQLQQSGPELVKPGASVKISCKASGYSFTGYYMNWVKQSPEKSLEWIGEINSSTGGTTYNQKFKAKATMTVDKSSNTAYMELKSLTSEDSAVYYCRYYGSDWHFDVWGTGTTVTVSS VL: QIVLTQSPALMSASPGEKVTMTCSASSSVSYMYWYQQKPRSSPKPWIYLTSSLASGVPARFSGSGSGTSYSLTISTMEAEDAATYYCQQWSSDPLTFGAGTKLELK", 10.24),
]
